# studyTarget: SRPK1 (human) (UniProt Q96SB4)
# Sequence (Q96SB4 whole entry, looked up): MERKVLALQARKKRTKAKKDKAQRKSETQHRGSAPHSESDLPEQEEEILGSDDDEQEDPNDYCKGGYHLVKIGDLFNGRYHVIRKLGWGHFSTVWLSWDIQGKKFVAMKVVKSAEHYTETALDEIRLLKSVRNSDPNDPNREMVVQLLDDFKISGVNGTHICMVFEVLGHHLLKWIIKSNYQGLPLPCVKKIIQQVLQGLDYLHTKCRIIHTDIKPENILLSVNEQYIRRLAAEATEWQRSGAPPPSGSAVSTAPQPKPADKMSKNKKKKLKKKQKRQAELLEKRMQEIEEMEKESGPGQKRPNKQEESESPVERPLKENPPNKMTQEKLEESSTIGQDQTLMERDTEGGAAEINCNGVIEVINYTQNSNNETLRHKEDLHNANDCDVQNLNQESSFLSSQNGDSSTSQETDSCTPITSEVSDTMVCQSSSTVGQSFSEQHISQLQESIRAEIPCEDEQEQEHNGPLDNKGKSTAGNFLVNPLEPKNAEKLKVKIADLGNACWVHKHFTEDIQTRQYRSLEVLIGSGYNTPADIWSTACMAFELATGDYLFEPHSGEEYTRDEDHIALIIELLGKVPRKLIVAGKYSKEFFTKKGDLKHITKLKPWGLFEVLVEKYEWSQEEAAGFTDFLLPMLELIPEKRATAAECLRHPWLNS
# assayProcedure: radiometric filter-binding kinase assay, Kinase HotSpot
# assayConditions: compound 0.5 µM; ATP 10 µM
Reported residual activity values for a set of compounds
Quick reminder: number only, in %, skip the unit.

>  <chemicalStructure>
Cn1nc2c3c(cccc31)C(=O)c1ccccc1-2

>  <observationType>
residual activity

>  <reportedMeasurement>
99.7

$$$$
>  <chemicalStructure>
O=C(CCCc1ccc(-c2ccccc2F)cc1)Nc1ccc(O)cc1

>  <observationType>
residual activity

>  <reportedMeasurement>
98.6

$$$$
>  <chemicalStructure>
Cc1nc2cc3nc(-c4cccs4)cnc3cc2n1C

>  <observationType>
residual activity

>  <reportedMeasurement>
107

$$$$
>  <chemicalStructure>
COc1ccc(CNC(=O)Nc2ncc([N+](=O)[O-])s2)cc1

>  <observationType>
residual activity

>  <reportedMeasurement>
92.9

$$$$
>  <chemicalStructure>
O=C1NC(=O)/C(=C\c2ccc3nccnc3c2)S1

>  <observationType>
residual activity

>  <reportedMeasurement>
110

$$$$
>  <chemicalStructure>
CC(C)[C@H](CO)Nc1nc(Nc2cc(N)cc(Cl)c2)c2ncn(C(C)C)c2n1

>  <observationType>
residual activity

>  <reportedMeasurement>
62.1

$$$$
>  <chemicalStructure>
CN([C@@H](Cc1ccc(OS(=O)(=O)c2cccc3cnccc23)cc1)C(=O)N1CCN(c2ccccc2)CC1)S(=O)(=O)c1cccc2cnccc12

>  <observationType>
residual activity

>  <reportedMeasurement>
104

$$$$
>  <chemicalStructure>
CN(C)C[C@H]1CCn2c(c(C3=C(c4cn(C)c5ccccc45)C(=O)NC3=O)c3ccccc32)C1

>  <observationType>
residual activity

>  <reportedMeasurement>
103

$$$$

Moving on to another compound below.
Query: Please give the documented residual activity of O=C(O)/C=C/c1cc(Br)c(Br)c(Br)c1Br
Reply: 79.3

###

# studyTarget: CHUK (human) (UniProt O15111)
# Sequence (O15111 whole entry, looked up): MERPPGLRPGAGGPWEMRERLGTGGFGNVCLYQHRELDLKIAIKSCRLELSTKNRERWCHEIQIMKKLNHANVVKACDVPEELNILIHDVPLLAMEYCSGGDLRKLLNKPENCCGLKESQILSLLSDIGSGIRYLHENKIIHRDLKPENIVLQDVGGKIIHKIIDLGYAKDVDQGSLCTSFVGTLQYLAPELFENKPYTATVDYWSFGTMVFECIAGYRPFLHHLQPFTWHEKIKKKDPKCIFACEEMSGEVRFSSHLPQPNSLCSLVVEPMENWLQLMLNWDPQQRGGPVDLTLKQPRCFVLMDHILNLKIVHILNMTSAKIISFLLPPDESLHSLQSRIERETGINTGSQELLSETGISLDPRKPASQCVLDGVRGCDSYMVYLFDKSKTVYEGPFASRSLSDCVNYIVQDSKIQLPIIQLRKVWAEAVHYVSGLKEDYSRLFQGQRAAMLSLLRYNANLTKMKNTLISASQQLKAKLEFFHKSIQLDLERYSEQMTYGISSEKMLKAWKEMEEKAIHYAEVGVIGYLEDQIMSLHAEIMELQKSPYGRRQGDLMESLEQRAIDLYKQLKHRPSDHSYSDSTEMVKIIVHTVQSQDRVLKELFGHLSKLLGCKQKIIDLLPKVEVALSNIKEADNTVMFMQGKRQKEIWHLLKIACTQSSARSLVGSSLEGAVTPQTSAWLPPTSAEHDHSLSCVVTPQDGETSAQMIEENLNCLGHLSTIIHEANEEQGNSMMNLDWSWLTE
# assayProcedure: radiometric filter-binding kinase assay, Kinase HotSpot
# assayConditions: compound 0.5 µM; ATP 10 µM
Let's look at some compounds and their measured residual activity.

>  <chemicalStructure>
CC(C)c1nn(-c2c(Cl)cccc2Cl)c2nc(Cc3ccc(OCCO)cc3)nc(O)c12

>  <residual activity>
98.5%

$$$$

Query: Please look at this compound and report its residual activity: CN([C@@H](Cc1ccc(OS(=O)(=O)c2cccc3cnccc23)cc1)C(=O)N1CCN(c2ccccc2)CC1)S(=O)(=O)c1cccc2cnccc12
Reply: 93.4%

Query: For the compound COc1ccc(CNC(=O)Nc2ncc([N+](=O)[O-])s2)cc1 , give its measured residual activity value.
Reply: 97.1%

Query: Provide one value: measured residual activity of O=C1NC(=O)/C(=C\c2ccc3nccnc3c2)S1
Reply: 86.7%

Query: Using known records, supply residual activity for Cn1cnc2cc3c(Nc4cccc(Br)c4)ncnc3cc21
Reply: 89.7%

Query: Read off the recorded residual activity for CCN(CC)CCCCN1c2ccccc2Oc2ccc(Cl)cc21
Reply: 98.8%

Query: Look up and report measured residual activity for this entry: COc1cc2ncc(-c3ccccc3)nc2cc1OC
Reply: 113%

Query: Give recorded residual activity. Cn1sc(=O)n(Cc2ccccc2)c1=O
Reply: 96.2%

Query: # return recorded residual activity for entry O=C1Nc2ccccc2/C1=C1\Nc2ccccc2\C1=N/O
Reply: 97.6%

Query: Respond only with residual activity recorded for CCn1cnc2c(Nc3cccc(Cl)c3)nc(N[C@@H]3CCCC[C@@H]3N)nc21
Reply: 91.7%

Query: Give residual activity for the following compound: CN(C)C[C@H]1CCn2c(c(C3=C(c4cn(C)c5ccccc45)C(=O)NC3=O)c3ccccc32)C1
Reply: 103%
